target_under_test: C-C chemokine receptor type 2 (Homo sapiens)
run_description: Antagonist activity at human CCR2b receptor
Type: functional
experimental_conditions: read-out: IC50
Readings of IC50 for the listed compounds

compound: C[C@H]1CN([C@@H]2CC[C@](C)(C(=O)NCc3cc(F)cc(C(F)(F)F)c3)C2)CC[C@]12C=Cc1ccccc12
endpoint_unit: nM
IC50: 4

compound: C[C@H]1CN(CCC(CC2CC2)C(=O)NCc2cc(C(F)(F)F)cc(C(F)(F)F)c2)CC[C@@]12C=Cc1ccccc12 (some centres undefined)
endpoint_unit: nM
IC50: 25

compound: C[C@H]1CN(CCC(C(=O)NCc2cc(C(F)(F)F)cc(C(F)(F)F)c2)C2CCC2)CC[C@@]12C=Cc1ccccc12 (some centres undefined)
endpoint_unit: nM
IC50: 28

compound: CC(C)C[C@]1(C(=O)NCc2cc(F)cc(C(F)(F)F)c2)CC[C@@H](N2CC[C@]3(C=Cc4ccccc43)[C@@H](C)C2)C1
endpoint_unit: nM
IC50: 3.9

====

Each record here notes measured IC50.
target_under_test: C-C chemokine receptor type 2 (Homo sapiens, UniProt P41597)
Sequence (P41597 whole entry): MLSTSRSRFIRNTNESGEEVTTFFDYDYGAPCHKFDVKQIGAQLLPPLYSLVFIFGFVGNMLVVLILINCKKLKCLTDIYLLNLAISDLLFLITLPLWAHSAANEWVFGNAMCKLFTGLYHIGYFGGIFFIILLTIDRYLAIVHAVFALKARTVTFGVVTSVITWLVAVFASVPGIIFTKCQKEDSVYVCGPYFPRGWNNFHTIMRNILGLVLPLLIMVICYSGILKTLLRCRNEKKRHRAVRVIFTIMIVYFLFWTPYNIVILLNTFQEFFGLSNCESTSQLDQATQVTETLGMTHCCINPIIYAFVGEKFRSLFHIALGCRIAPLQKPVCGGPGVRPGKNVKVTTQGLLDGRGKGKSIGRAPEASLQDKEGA
run_description: Antagonist activity at human CCR2b receptor
Assay type: functional
experimental_conditions: read-out: IC50

compound: C[C@H]1CN(CCC(C(=O)NCc2cc(C(F)(F)F)cc(C(F)(F)F)c2)C2CC2)CC[C@@]12C=Cc1ccccc12 (some centres not stated)
IC50 / nM: 14

compound: CSC[C@]1(C(=O)NCc2cc(F)cc(C(F)(F)F)c2)CC[C@@H](N2CC[C@]3(C=Cc4ccccc43)[C@@H](C)C2)C1
IC50 / nM: 3.5

compound: C[C@H]1CN([C@@H]2CC[C@](CC3CCC3)(C(=O)NCc3cc(C(F)(F)F)cc(C(F)(F)F)c3)C2)CC[C@]12C=Cc1ccccc12
IC50 / nM: 19

compound: O=C(NCc1cc(C(F)(F)F)cc(C(F)(F)F)c1)C(CCN1CCC(c2ccccc2)CC1)C1CC1 (configuration not stated)
IC50 / nM: 285

compound: CC(CCN1CCC2(C=Cc3ccccc32)CC1)C(=O)NCc1cc(C(F)(F)F)cc(C(F)(F)F)c1 (configuration not stated)
IC50 / nM: 231

compound: CS[C@]1(C(=O)NCc2cc(C(F)(F)F)cc(C(F)(F)F)c2)CC[C@@H](N2CC[C@]3(C=Cc4ccccc43)[C@@H](C)C2)C1
IC50 / nM: 28

compound: O=C(NCc1cc(C(F)(F)F)cc(C(F)(F)F)c1)C(CCN1CCC2(C=Cc3ccccc32)CC1)C1CC1 (configuration not stated)
IC50 / nM: 98

The reported numbers originate from ChEMBL document CHEMBL1141514.
